- experiment.summary: PK protocol, intravenous administration
- Type: in vivo, male Sprague Dawley rats
- study.conditions: male, Sprague Dawley, rat, plasma, dose (mg/kg)
Where a name gives a salt, the structure may show the parent alone.
# label = bin(measured AUC), where bins are band A: < 3000 ng·h/mL; band B: ≥ 3000 ng·h/mL and < 6000 ng·h/mL; band C: ≥ 6000 ng·h/mL

Solved cases (3 shown):
1) O=C(Nc1c2c(cc3c1CCC3)CCC2)NS(=O)(=O)c1cc(CN2CCC2)n(C2CC2)n1 [Example 30] | band C
2) CC(C)c1cc(F)cc(C(C)C)c1NC(=O)NS(=O)(=O)c1cc(CN2CCC2)n(C)n1 [Example 88, Sodium Salt] | band A
3) CCC(c1cc(S(=O)(=O)NC(=O)Nc2c3c(cc4c2CCC4)CCC3)nn1C1CC1)N(C)C (stereo not drawn) [Example 24] | band A

q: Band for CC(c1cc(S(=O)(=O)NC(=O)Nc2c3c(cc4c2CCC4)CCC3)nn1C)N1CCC1 (stereo not drawn) [Example 76] ?
a: band B

q: Band for CNCc1cc(S(=O)(=O)NC(=O)Nc2c3c(cc4c2CCC4)CCC3)nn1C(C)C [Example 50] ?
a: band C

q: Band for CCn1nc(S(=O)(=O)NC(=O)Nc2c3c(cc4c2CCC4)CCC3)cc1CN(C)C [Example 52] ?
a: band C

q: Band for CC(c1cc(S(=O)(=O)NC(=O)Nc2c3c(cc4c2CCC4)CCC3)nn1C(C)C)N(C)C (stereo not drawn) [Example 73] ?
a: band B

q: Band for Cn1nc(S(=O)(=O)[N-]C(=O)Nc2c3c(cc4c2CCC4)CCC3)cc1C[N+](C)(C)C [Example 44] ?
a: band B

q: Band for CC(C)N(C)Cc1cc(S(=O)(=O)NC(=O)Nc2c3c(cc4c2CCC4)CCC3)nn1C [Example 91] ?
a: band A

----------
- test.system: NLRP3 (Homo sapiens, UniProt Q96P20)
- Sequence (Q96P20 whole entry): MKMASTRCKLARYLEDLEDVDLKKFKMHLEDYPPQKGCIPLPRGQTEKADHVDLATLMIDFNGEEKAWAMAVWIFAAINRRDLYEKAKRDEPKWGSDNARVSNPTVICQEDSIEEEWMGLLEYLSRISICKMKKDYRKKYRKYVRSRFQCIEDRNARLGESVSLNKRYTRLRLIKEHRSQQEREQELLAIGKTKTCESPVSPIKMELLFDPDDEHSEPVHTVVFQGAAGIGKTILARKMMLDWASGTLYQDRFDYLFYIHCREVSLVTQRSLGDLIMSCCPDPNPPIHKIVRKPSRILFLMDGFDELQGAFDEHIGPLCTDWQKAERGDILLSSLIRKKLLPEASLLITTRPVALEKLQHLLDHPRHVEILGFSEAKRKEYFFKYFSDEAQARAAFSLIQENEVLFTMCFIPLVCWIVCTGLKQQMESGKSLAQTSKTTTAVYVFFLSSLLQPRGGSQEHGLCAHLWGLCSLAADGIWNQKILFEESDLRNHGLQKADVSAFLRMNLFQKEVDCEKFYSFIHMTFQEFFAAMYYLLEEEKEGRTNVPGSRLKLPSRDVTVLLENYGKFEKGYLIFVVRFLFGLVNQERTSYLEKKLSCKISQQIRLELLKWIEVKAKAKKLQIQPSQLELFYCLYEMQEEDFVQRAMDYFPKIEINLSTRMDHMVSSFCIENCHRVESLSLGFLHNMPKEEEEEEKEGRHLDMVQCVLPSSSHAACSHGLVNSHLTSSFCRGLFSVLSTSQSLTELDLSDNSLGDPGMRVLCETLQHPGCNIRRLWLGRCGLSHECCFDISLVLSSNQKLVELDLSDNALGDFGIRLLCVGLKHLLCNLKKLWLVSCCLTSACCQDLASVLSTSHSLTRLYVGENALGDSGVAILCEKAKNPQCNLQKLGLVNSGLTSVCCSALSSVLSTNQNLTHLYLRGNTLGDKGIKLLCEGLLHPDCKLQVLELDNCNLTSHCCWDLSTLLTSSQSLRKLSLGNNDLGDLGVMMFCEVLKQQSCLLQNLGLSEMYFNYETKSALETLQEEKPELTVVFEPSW
- experiment.summary: Human whole blood IL1β release assay (LPS + nigericin, AlphaLisa IL-1β)
- Assay type: cell-based
- Design: Human whole blood in Li-heparin tubes was obtained from healthy donors from a volunteer donor panel; from tissue; host or cells: human whole blood from healthy donors
- study.conditions: NLRP3 inhibitory activity, 1 μg/ml LPS, 10 μM nigericin, IL-1β release, read-out: HWB IC50
Counter-ions that a name gives are not always drawn.
quantity.kind: IC50

Solved cases below.
1. CN(CCO)Cc1cc(S(=O)(=O)NC(=O)Nc2c3c(cc4c2CCC4)CCC3)nn1C [Example 117] | < 400 nM
2. CC(C)c1cc(F)cc(C(C)C)c1NC(=O)NS(=O)(=O)c1cc(CN(C)C)n(C)n1 [Example 92, Sodium Salt] | < 400 nM

q: Bench note: what IC50 did CC(C)n1nc(S(=O)(=O)NC(=O)Nc2c3c(cc4c2CCC4)CCC3)cc1CN(C)C [Example 68] show?
a: 400 to 800 nM

----------
- experiment.summary: PK protocol, intravenous administration
- Type: in vivo, male Sprague Dawley rats
- study.conditions: male, Sprague Dawley, rat, plasma, dose (mg/kg)
Where a name gives a salt, the structure may show the parent alone.
Lab note: compare clearance with 7 mL/min/kg, writing YES if less and NO if equal or more.

Solved cases (6 shown):
1) CCN(C)Cc1cc(S(=O)(=O)NC(=O)Nc2c(C(C)C)cc(F)cc2C(C)C)nn1C [Example 89, sodium Salt] | NO
2) CC(c1cc(S(=O)(=O)NC(=O)Nc2c3c(cc4c2CCC4)CCC3)nn1C)N1CCC1 (single isomer, unassigned; enantiomer 2) [Example 27] | YES
3) CN(C)CCn1nc(S(=O)(=O)NC(=O)Nc2c3c(cc4c2CCC4)CCC3)cc1CN(C)C | NO
4) CN(C)Cc1cc(S(=O)(=O)NC(=O)Nc2c3c(cc4c2CCC4)CCC3)nn1C1CC1 | YES
5) CC(C)c1cc(Cl)cc(C(C)C)c1NC(=O)NS(=O)(=O)c1cc(CN(C)C)n(C)n1 [Example 93, Sodium Salt] | NO
6) CC(c1cc(S(=O)(=O)NC(=O)Nc2c3c(cc4c2CCC4)CCC3)nn1C(C)C)N(C)C (stereo not shown) | YES

q: Just wondering, is clearance of CC(C)c1cc(F)cc(C(C)C)c1NC(=O)NS(=O)(=O)c1cc(CN(C)C)n(C)n1 [Example 92, Sodium Salt] below 7 mL/min/kg?
a: NO

q: Just wondering, is clearance of CC(c1cc(S(=O)(=O)NC(=O)Nc2c3c(cc4c2CCC4)CCC3)nn1C)N1CCC1 (stereo not shown) [Example 76] below 7 mL/min/kg?
a: YES

q: Just wondering, is clearance of Cn1nc(S(=O)(=O)NC(=O)Nc2c3c(cc4c2CCC4)CCC3)cc1CN1CCC1 [Example 86, Sodium Salt] below 7 mL/min/kg?
a: YES

q: Just wondering, is clearance of CN(C)Cc1cc(S(=O)(=O)NC(=O)Nc2c3c(cc4c2CCC4)CCC3)nn1C below 7 mL/min/kg?
a: YES

q: Just wondering, is clearance of CC(c1cc(S(=O)(=O)NC(=O)Nc2c3c(cc4c2CCC4)CCC3)nn1C)N(C)C (stereo not shown) below 7 mL/min/kg?
a: YES

q: Just wondering, is clearance of CCN(C)Cc1cc(S(=O)(=O)NC(=O)Nc2c3c(cc4c2CCC4)CCC3)nn1C below 7 mL/min/kg?
a: YES

q: Just wondering, is clearance of CCC(c1cc(S(=O)(=O)NC(=O)Nc2c3c(cc4c2CCC4)CCC3)nn1C1CC1)N(C)C (stereo not shown) below 7 mL/min/kg?
a: NO

q: Just wondering, is clearance of CNCc1cc(S(=O)(=O)NC(=O)Nc2c3c(cc4c2CCC4)CCC3)nn1C(C)C below 7 mL/min/kg?
a: YES

q: Just wondering, is clearance of Cn1nc(S(=O)(=O)[N-]C(=O)Nc2c3c(cc4c2CCC4)CCC3)cc1C[N+](C)(C)C below 7 mL/min/kg?
a: YES
